# Procedure summary: Antitumor activity against human RXF393 cells after 48 hrs
# Format: functional
# Measurement context: RXF 393, 48 h

Molecule smiles: COc1cc(OC)cc(/C(C#N)=C/c2cnc3ccccc3c2)c1
GI50 [nM]: 297
--
Molecule smiles: COc1cc(/C(C#N)=C/c2cnc3ccccc3c2)cc(OC)c1OC
GI50 [nM]: 579
--
Molecule smiles: COc1cc(OC)cc(/C(C#N)=C/c2ccc3ccccc3n2)c1
GI50 [nM]: 334
--
Molecule smiles: COc1cc(/C(C#N)=C/c2ccc3ccccc3n2)cc(OC)c1OC
GI50 [nM]: 271

---

Reported GI50 values for a set of molecules
# Test system: SK-MEL-5
# Procedure summary: Antitumor activity against human SK-MEL-5 cells after 48 hrs
# Format: functional
# Measurement context: SK-MEL-5, 48 h

Molecule smiles: COc1cc(/C(C#N)=C/c2ccc3ccccc3n2)cc(OC)c1OC
Target or system: SK-MEL-5
GI50 [nM]: 243
--
Molecule smiles: COc1cc(/C(C#N)=C/c2cnc3ccccc3c2)cc(OC)c1OC
Target or system: SK-MEL-5
GI50 [nM]: 410
--
Molecule smiles: COc1cc(OC)cc(/C(C#N)=C/c2ccc3ccccc3n2)c1
Target or system: SK-MEL-5
GI50 [nM]: 406
--
Molecule smiles: COc1cc(OC)cc(/C(C#N)=C/c2cnc3ccccc3c2)c1
Target or system: SK-MEL-5
GI50 [nM]: 249
